# pEC50 per entry
# Test system: CEM cells HIV-1 protection, formazan growth assay
# Method Description: NCI AIDS Antiviral Assay
# Method: The ability of compounds to protect human CEM cells from HIV-1 infection is measured as a screen for new compounds capable of inhibiting the HIV virus. Five concentrations of drug were tested on uninfected and infected cells and cell growth was measured using a soluble formazan assay. […] Compounds that provided at least 50% protection were retested. Compounds that provided at least 50% protection on retest were listed as moderately active. […]
pEC50: −log10 of the molar value.

{"columns": ["Molecule", "Tgt", "pEC50"],
 "data": [
  ["Cc1nc2sc(C(=O)c3ccc(Cl)cc3)c(N)c2c(-c2ccccc2Cl)c1C(=O)Nc1ccccc1", "CEM cells HIV-1 protection, formazan growth assay", "< 3.70"],
  ["O=C1C[C@H]2CCCN2[C@@H](c2ccccc2)C1", "CEM cells HIV-1 protection, formazan growth assay", "< 3.22"],
  ["Cc1cn(COCC[Se]c2ccccc2)c(=O)[nH]c1=O", "CEM cells HIV-1 protection, formazan growth assay", 3.73],
  ["CC1(C)N([O-])[N+](=O)C1(Br)c1ccccc1 (stereo unspecified)", "CEM cells HIV-1 protection, formazan growth assay", "< 3.70"],
  ["CC(C)C1CNC(=O)C2(C=NC(C(C)C)CNC(=O)C3(C=N1)CCCO3)CCCO2 (stereo unspecified)", "CEM cells HIV-1 protection, formazan growth assay", "< 4.91"],
  ["C=CCN=C1N=C(C)C(C(=O)OCC)S1 (stereo unspecified)", "CEM cells HIV-1 protection, formazan growth assay", "< 4.52"],
  ["CC(=O)O[C@]12CCCCCC1C1(O)C(O)CCCCC12 (stereo partly specified)", "CEM cells HIV-1 protection, formazan growth assay", "< 3.70"],
  ["C/C=C/[C@H](O[Si](C)(C)C(C)(C)C)[C@@H](O)/C=C/C(=O)OCC", "CEM cells HIV-1 protection, formazan growth assay", "< 3.70"],
  ["CC(/C=N/N(C)C1=NCCCCN1)=N/N(C)C1=NCCCCN1", "CEM cells HIV-1 protection, formazan growth assay", "< 3.70"],
  ["O=c1n(-c2ccccc2)c(=O)n2n1C1/C=C\\C=C/C2C2CCC21 (stereo unspecified)", "CEM cells HIV-1 protection, formazan growth assay", "< 3.70"],
  ["CCOC1c2cc(C(C)C)c(O)c(O)c2[C@@]23CCCC(C)(C)C2C1OC3=O (stereo partly specified)", "CEM cells HIV-1 protection, formazan growth assay", "< 3.70"]
]}

---

# Tested on: CEM cells HIV-1 protection, formazan growth assay
# Method Description: NCI AIDS Antiviral Assay
# Method: The ability of compounds to protect human CEM cells from HIV-1 infection is measured as a screen for new compounds capable of inhibiting the HIV virus. Five concentrations of drug were tested on uninfected and infected cells and cell growth was measured using a soluble formazan assay. […] Compounds that provided at least 50% protection were retested. Compounds that provided at least 50% protection on retest were listed as moderately active. […]
Counter-ions that a name gives are not always drawn. Where a SMILES comes first, the peptide text is derived from it. The star is where a group is joined. Tfa = O=C(C(F)(F)F)*

{"columns": ["Compound", "EC50"],
 "data": [
  ["CC(C)(C)C1=CC(=C(P(=O)(O)O)P(=O)(O)O)C=C(C(C)(C)C)C1=O", "> 537 µM"],
  ["CN(C)Cc1c(O)ccc2ccccc12", "> 468 µM"],
  ["O=C(O)CC(NC(=O)C(F)(F)F)C(=O)NC(Cc1ccc(O)cc1)C(=O)O (stereo not drawn) (Tfa-Asp-Tyr-OH; configuration not given here)", "> 200 µM"],
  ["CCOC(CCc1c(C)nc(NC(C)=O)[nH]c1=O)OCC", "> 200 µM"],
  ["COc1ccc(-c2c3c(n(C4OC(COC(C)=O)C(OC(C)=O)C(OC(C)=O)C4OC(C)=O)c(=S)c2C#N)CCCC3)cc1 (stereo not given)", "> 200 µM"],
  ["Cc1ccc(C)c2c1OC(=O)C1CNCOC21 (stereo not given)", "> 50.1 µM"],
  ["COc1ncc(C#CC(=O)c2ccccc2OC)c(OC)n1", "> 0.2 µM"],
  ["CC(C(=O)NCCNC(=O)CCC(=O)N(C)O)C(=O)NCCNC(=O)CCC(=O)N(C)O", "> 200 µM"],
  ["COC(=O)C(=O)C(C(=O)C(=O)Nc1cc([N+](=O)[O-])ccc1[N+](=O)[O-])c1nc2ccc(C(=O)c3ccccc3)cc2[nH]c1=O (stereo not given)", "> 158 µM"],
  ["S=c1[nH]nc(Cn2c3ccc(Br)cc3c3nc4ccccc4nc32)n1C1CCCCC1", "> 200 µM"],
  ["CCOC(=O)c1[nH]cc(C)c1-c1ccc2c(-c3ccccc3)nc3ccccc3n12", "> 200 µM"],
  ["C/C(=N/OC(=O)N(C)C)c1cc(Cl)ccc1Cl", "> 200 µM"],
  ["CN(CC(O)C(O)CN(C)C(=S)S)C(=S)S (stereo not given)", "> 661 µM"],
  ["CCOC(=O)[C@@]12C(C)=CC(=O)O[C@]1(C)C[C@H]2C#N", "> 1000 µM"],
  ["CN(C)C(=O)CC(C(=O)O)c1c[nH]c2ccccc12 (stereo not given)", "> 309 µM"],
  ["CSc1nc(Cl)c2c(n1)Sc1nc3ccccc3n1N=C2", "> 100 µM"],
  ["C1=NCCNCCN=Cc2ccccc2OCc2cccc(n2)COc2ccccc21", "> 200 µM"],
  ["Cc1ccc(C2=NN(C)COC2C(F)(F)F)cc1 (stereo not given)", "> 28.2 µM"],
  ["CSc1n[nH]c(NC(=O)c2cccc(C(F)(F)F)c2)n1", "> 44.7 µM"],
  ["c1sc(NC2=NCCO2)c2c1CCCC2", "> 200 µM"],
  ["CC(C)(C)OC(=O)NCC(=O)NC1CC=CCC1NC(=O)CNC(=O)OC(C)(C)C (stereo not given)", "> 200 µM"],
  ["CN1C(=O)OC(c2ccc(Cl)cc2)C1=O (stereo not given)", "> 200 µM"],
  ["c1ccc(N2N=NC3C4CC(C32)C2C4N=NN2c2ccccc2)cc1 (stereo not given)", "> 200 µM"],
  ["Cn1c(=O)oc2cc(Br)ccc21", "> 200 µM"],
  ["Cc1cc(C)c(C#N)c(SCC(=O)c2sc3c(C#N)c(C)cc(C)[n+]3c2[O-])n1", "> 6.61 µM"],
  ["CC(CO)/[N+]([O-])=N/O (stereo not given)", "> 479 µM"],
  ["CS/C(=N\\N=C(/C)c1ccccn1)N1CCN(c2ccccn2)CC1", "> 123 µM"],
  ["COC(=O)/C(C#N)=C\\n1c(=S)[nH]c2ccccc21", "> 200 µM"],
  ["O=C(O)C1COCN1C(=O)c1cc2ccccc2cc1SSc1cc2ccccc2cc1C(=O)N1COCC1C(=O)O (stereo not given)", "> 200 µM"],
  ["CN(NC(=O)c1ccco1)C1=NCCN1", "> 200 µM"]
]}
